Record set: IC50 | VPS34 (Homo sapiens) | literature, multiple sources.

Some solved cases for reference:
smiles_data=Cc1cc(-c2nc(-c3cc(S(=O)(=O)NCC(C)(C)O)ccc3C)cnc2N)on1 measurement_target="VPS34 (Homo sapiens)" recorded_endpoint=IC50 measurement="9100 nM"
smiles_data=CC(=O)Nc1cc(-c2cc(-c3nc[nH]n3)n(-c3ncccc3Cl)c2)c(C)cn1 measurement_target="VPS34 (Homo sapiens)" recorded_endpoint=IC50 measurement="100 to 1000 nM"
smiles_data=CC(=O)Nc1cc(-c2cncc3[nH]ccc23)ccn1 measurement_target="VPS34 (Homo sapiens)" recorded_endpoint=IC50 measurement="50 to 100 nM"
smiles_data=NC(=O)c1cn(-c2ccnc3[nH]ccc23)nc1-c1ccccc1Cl measurement_target="VPS34 (Homo sapiens)" recorded_endpoint=IC50 measurement="150 to 1000 nM"
smiles_data=CCS(=O)(=O)n1ccc2c(-c3ccnc(NC(C)=O)c3)cnc(C)c21 measurement_target="VPS34 (Homo sapiens)" recorded_endpoint=IC50 measurement="< 10 nM"
smiles_data=CC(=O)Nc1cc(-n2cc(-c3cccc(N)n3)c(-c3ccccc3Cl)n2)c(C)cn1 measurement_target="VPS34 (Homo sapiens)" recorded_endpoint=IC50 measurement="150 to 1000 nM"
smiles_data=CC(=O)Nc1cc(-n2cc(-c3ccccc3)c(-c3nnc[nH]3)c2)c(C)cn1 measurement_target="VPS34 (Homo sapiens)" recorded_endpoint=IC50 measurement="150 to 1000 nM"
smiles_data=c1cc(Nc2cc(-c3cncc4[nH]ccc34)ccn2)ncn1 measurement_target="VPS34 (Homo sapiens)" recorded_endpoint=IC50 measurement="10 to 50 nM"

API: the following record is the query input.
In: Recorded IC50 of Cc1cnc(NC(=O)C(C)C)cc1-n1cc(C(N)=O)c(-c2ccccc2Cl)c1 , please.
Out: 1000 to 5000 nM
